assay: Mass spectrometry analysis of Ringers solution from Ussing chambers during ex vivo recovery (degradation and fragment formation); type: in vitro ADME, pig; settings: pig, tissue, pH 7.4; Ussing chamber Ringers solution, ex vivo recovery 240 minutes; LC-MS/MS; n = 4; read-out: Half-life in ischemic injured jejunum tissue
Square brackets hold non-standard residues; d marks the D form. Peptide text beside a SMILES is read from it.
measurement-label: half-life
In your response, put the unit directly after the numeric value.

### Prompt Assign half-life to the following record: CC(C)C[C@@H](NC(=O)[C@H](NC(=O)CNC(=O)CN)C(C)C)C(=O)N[C@@H](C(=O)N[C@H](CCC(N)=O)C(=O)N1CCC[C@@H]1C(=O)NCC(=O)O)C(C)C [A6] (H-GG[dV][dL][dV][dQ][dP]G-OH)
### Response 1.3 h
